- TEST DETAILS: Menadione toxicity to hepatocytes from young and old rats (percent viability, LC50)
- Format: cell-based, rat
- REPORTED CONDITIONS: rat, isolated hepatocytes from young rats, hepatocytes from young rats
- Text: Hepatocytes isolated from an old rat have 60% less mitochondrial GSH than that seen in young adult animals. In this example, menadione was used as a redox cycler, to stress mitochondria in hepatocytes, as GSH-dependent mechanisms can be involved its detoxification. […] The increased vulnerability to menadione has been linked to the loss of GSH resulting from the decline in GSH synthesis capacity. Menadione treatment alone served as the positive control.
READOUT: CC50

Could you tell me which CC50 is on file for CC1=CC(=O)c2ccccc2C1=O ?
~500 µM
